target: hα4β2-T58K nAChRs (Homo sapiens, UniProt P17787+P43681, T84K); construct: Human nAChR α4 and β2 full-length cDNAs in the vector pSP64 (poly A); expressed in transfected cells; host or cells: HEK ts201 cells; assay: Calcium accumulation assay, HEK ts201 cells transiently expressing hα4β2 β2-T58K mutant nAChRs; assay type: cell-based
Sequence (P43681 27-627, stated change not applied): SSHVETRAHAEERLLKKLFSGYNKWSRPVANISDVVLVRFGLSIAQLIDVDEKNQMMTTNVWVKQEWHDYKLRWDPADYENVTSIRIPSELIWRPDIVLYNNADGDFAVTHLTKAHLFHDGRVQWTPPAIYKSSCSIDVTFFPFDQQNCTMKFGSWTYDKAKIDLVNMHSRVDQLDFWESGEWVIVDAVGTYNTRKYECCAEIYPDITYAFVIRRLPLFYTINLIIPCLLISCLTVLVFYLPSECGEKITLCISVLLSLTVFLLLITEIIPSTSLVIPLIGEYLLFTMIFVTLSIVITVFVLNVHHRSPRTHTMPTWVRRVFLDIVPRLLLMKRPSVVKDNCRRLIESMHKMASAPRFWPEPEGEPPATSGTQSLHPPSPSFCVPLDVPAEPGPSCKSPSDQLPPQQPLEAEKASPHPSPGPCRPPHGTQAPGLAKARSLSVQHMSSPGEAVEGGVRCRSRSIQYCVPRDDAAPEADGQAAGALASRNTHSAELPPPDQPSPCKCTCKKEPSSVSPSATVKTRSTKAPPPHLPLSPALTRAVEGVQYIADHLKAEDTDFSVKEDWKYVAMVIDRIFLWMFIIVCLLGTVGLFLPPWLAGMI
Sequence (P17787 26-502 T84K): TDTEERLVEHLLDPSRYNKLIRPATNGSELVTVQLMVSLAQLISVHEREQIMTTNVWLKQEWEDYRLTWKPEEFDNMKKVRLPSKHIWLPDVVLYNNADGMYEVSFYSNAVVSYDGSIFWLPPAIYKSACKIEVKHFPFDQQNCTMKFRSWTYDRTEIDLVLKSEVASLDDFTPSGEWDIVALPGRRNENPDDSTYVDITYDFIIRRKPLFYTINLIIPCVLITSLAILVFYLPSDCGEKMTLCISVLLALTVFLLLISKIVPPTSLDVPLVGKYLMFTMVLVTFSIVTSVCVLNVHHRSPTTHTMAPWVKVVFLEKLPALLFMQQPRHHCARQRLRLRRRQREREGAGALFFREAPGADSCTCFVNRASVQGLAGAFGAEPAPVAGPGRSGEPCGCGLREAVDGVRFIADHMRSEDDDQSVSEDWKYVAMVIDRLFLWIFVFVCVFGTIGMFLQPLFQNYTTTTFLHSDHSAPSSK
Observation Type: IC50 (µM)
Expressed in µM, but write only the number.

Give its IC50 value. Item: COc1cc2c3cc1Oc1cc(ccc1O)C[C@@H]1c4c(cc(OC)c(O)c4Oc4ccc(cc4)C[C@@H]3N(C)CC2)CC[N+]1(C)C [d-tubocurarine] 6.2
